Assay: NCI Yeast Anticancer Drug Screen. Data for the mlh1 rad18 strain (AID 175)
Conditions: S. cerevisiae mlh1 rad18 strain growth inhibition; at 5.0 µM (retest, dose inferred, filed as 0.5); active compounds read high
About 79,000 compounds went through this panel and 15% of them were active in at least one assay; those are over-represented in the sample as a whole.
// no (0) strictly below 20% in growth inhibition; yes (1) otherwise

Please review the entries below; each comes with its answer.
molecule	discrete_label
CN(C)CCCNc1c2ccccc2nc2ccc([N+](=O)[O-])cc12	yes (1)
O=C(CNc1ccc([N+](=O)[O-])cc1)Nn1c(-c2ccccc2)nc2ccccc2c1=O	no (0)

Quick check, growth inhibition >= 20%? CN(C)CCCCCNc1c2ccccc2nc2cccc([N+](=O)[O-])c12
yes (1)

Quick check, growth inhibition >= 20%? O=C1c2ccccc2S(=O)(=O)CC1Br (stereo not given)
yes (1)

---

Assay: NCI Yeast Anticancer Drug Screen. Data for the mlh1 rad18 strain (AID 175)
Details: S. cerevisiae mlh1 rad18 strain growth inhibition; at 50.0 µM (retest, dose inferred, filed as 5.0); active compounds read high
This is part of a sample that, as a whole, favours compounds with a hit. Of some 79,000 tested, about 15% had one in any assay.
For each record, write down the corresponding growth inhibition.
Answers are plain numbers, in %.

compound	measure_unit	growth inhibition
CCCCCCCCCCCCCCCCS(=O)(=O)Cl	%	99
Nc1cn(C2OC(CC(c3ccccc3)(c3ccccc3)c3ccccc3)C(O)C2O)c(=O)[nH]c1=O (stereo unspecified)	%	97
O=C(OCc1ccccc1)c1ccc(O)cc1	%	88
N#Cc1ccc(Oc2nc3ccccc3nc2-c2ccccc2)cc1	%	27

List reported growth inhibition for each of these compounds:
1. O=C(CSc1nnc(Cc2ccccc2)o1)Nc1ccc(Cl)cc1
2. CCCN1CCN(c2ccc([N+](=O)[O-])c3no[n+]([O-])c23)CC1
3. Clc1ccc(C2=NCON=C2c2ccc(Cl)cc2)cc1
4. CCC(C)(O)C#Cc1ccc(C)nc1 (stereo unspecified)
5. CC12CCC(O)CC1=CCC1C2CCC2(C)/C(=C\C#N)CCC12 (stereo unspecified)
6. CCN(CC)C(=O)C(C)OC(C)=O (stereo unspecified)
7. CC1=CC(C)C(C)N(CCNC(=O)Nc2ccccc2)c2ccccc21 (stereo unspecified)

[91, 99, 97, 4, 97, 3, 66]

---

Assay: NCI Yeast Anticancer Drug Screen. Data for the bub3 strain (AID 167)
Conditions: S. cerevisiae bub3 mutant strain, at 50.0 µM, active compounds read high
This is part of a sample that, as a whole, favours compounds with a hit. Of some 79,000 tested, about 15% had one in any assay.
For each record, write down the corresponding growth inhibition.
Numbers only, in %.

# annotated cases, reported growth inhibition shown
In [3]: df
Out[3]:
                                   molecule       measure_name  recorded_number
0    O=C(CSc1nnc(Cc2ccccc2)o1)Nc1ccc(Cl)cc1  growth inhibition             26.2
1  CC1(C)COC(c2cccc(C(O)c3ccc(Cl)cc3)c2)=N1 (stereo unspecified)  growth inhibition             52.5
2                      CC(=O)/C=N/Nc1ccccc1  growth inhibition              7.2
3  CS(=O)(=O)OCC(COS(C)(=O)=O)C(c1ccccc1)c1ccccc1Br (stereo unspecified)  growth inhibition              5.4
4  COc1ccc(/C=C2/C(=O)N(C(=O)c3ccccc3O)N=C2C)cc1OC  growth inhibition             76.5

List reported growth inhibition for each of these molecules:
1. O=c1[nH]c2ccc([N+](=O)[O-])c(Cl)c2c2ccccc12
2. CC1OC(C)C(O)C2=C1C(=O)c1ccccc1C2=O (stereo unspecified)
3. O=C(CC(=O)c1ccccc1)CC(O)(c1ccccc1)c1ccccc1
4. CCOC(=O)C(C(=O)OCC)c1ccc([N+](=O)[O-])o1
5. CN(C)[C@@H]1C(=O)C(C(=O)NCNc2nc3n[nH]nc3c(=O)[nH]2)=C(O)[C@@]2(O)C(=O)C3=C(O)c4c(O)cccc4[C@@](C)(O)[C@H]3C[C@@H]12
6. Cc1cccnc1NC(=S)Nc1ccccc1Cl

[1.05, 83.5, 87.9, 87.9, -10.6, 91.8]

The values you see were collected from PubChem BioAssay (NCI).
